- tested-target: HIV-1 protease (Human immunodeficiency virus type 1 group M subtype B, UniProt P04585)
test-readout: IC50 (µM)
Numbers only, in µM.

input: Give me measured IC50, please, for this molecule: COC(=O)c1nc(-c2csc([C@@H](NC(=O)c3csc([C@@H](NC(=O)OC(C)(C)C)C(C)C)n3)C(C)C)n2)oc1C
output: 57.6

====

- assay: Cytotoxicity to HepG2.2.15 cells (MTT method)
- Type: cell-based
- run-conditions: human, HepG2.2.15 cells (HBV-transgenic human hepatoma cells), 50% death concentration, eighth day
test-readout: CC50 (µM)
Numbers only, in µM.

For the 2 compounds below, give their CC50 values.
1. CCCCc1sc(-c2nccs2)nc1C(=O)OC
2. CCOC(=O)c1nc(-c2nccs2)[nH]c1CC(C)C

output:
1. 397
2. 786

====

- Test system: hepatitis B virus (HBV)
- assay: HBV-DNA replication in HepG2.2.15 culture supernatant (fluorescent quantification PCR)
- Format: cell-based
- run-conditions: Hepatitis B virus, HepG2.2.15, read-out: DNA replication IC50
Kindly state IC50 for each of the entries shown.
Give bare numbers, in nM.

{"cpd-smiles": "CCOC(=O)c1nc(-c2cc3ccccc3s2)sc1CC(C)C", "IC50 / nM": 1320}

input: Give me measured IC50, please, for this compound: CCOC(=O)c1nc(-c2cccs2)sc1C1CCCCC1
output: 1670

====

- Tested on: MDCK (canine kidney) cells
- assay: 50% toxicity concentration in the anti-influenza screen (MDCK cells)
- Assay type: cell-based
- run-conditions: 50% toxity concentration, Table 3-2 (influenza screen, MDCK cells)
test-readout: TC50

Sample answers from the record:
{"cpd-smiles": "COC(=O)c1nc(-c2csc([C@@H](NC(=O)COCc3ccccc3)C(C)C)n2)oc1C", "tested-target": "MDCK (canine kidney) cells", "value-observed": "165.86 µg/mL"}
{"cpd-smiles": "COC(=O)c1nc(-c2csc([C@@H](NC(=O)CC3=CCCC3)C(C)C)n2)oc1C", "tested-target": "MDCK (canine kidney) cells", "value-observed": "333.33 µg/mL"}
{"cpd-smiles": "COC(=O)c1coc([C@H](C)NC(=O)c2nc(-c3csc([C@@H](NC(=O)c4ccccc4)C(C)C)n3)oc2C)n1", "tested-target": "MDCK (canine kidney) cells", "value-observed": ">1000 µg/mL"}

// next item, TC50 requested
input: Give me measured TC50, please, for this compound: Cc1oc(-c2csc([C@@H](NC(=O)CC3=CCCC3)C(C)C)n2)nc1C(=O)O
output: 480.75 µg/mL

====

- Tested on: hepatitis B virus (HBV)
- assay: HBV-DNA replication in HepG2.2.15 culture supernatant (fluorescent quantification PCR)
- Assay type: cell-based
- run-conditions: Hepatitis B virus; HepG2.2.15 supernatant, eighth day, fluorescent quantification PCR; read-out: DNA replication IC50
Each entry belongs to exactly one class, chosen by where its IC50 falls: low (below 3 µM), moderate (3 µM to below 6 µM), high (6 µM or more)

As a guide, the following entries are already answered.
{"cpd-smiles": "CC(C)Cc1cnc(-c2nccs2)o1", "qualitative-label": "high"}
{"cpd-smiles": "CCOC(=O)c1nc(-c2cscn2)sc1CC(C)C", "qualitative-label": "low"}
{"cpd-smiles": "O=C(O)c1nc(-c2nccs2)sc1Cc1ccccc1", "qualitative-label": "high"}

input: Please classify: c1ccc(-c2cnc(-c3cccs3)[nH]2)cc1
output: low

input: Please classify: CCOC(=O)c1nc(-c2ccc(C)s2)oc1CC(C)C
output: high

input: Please classify: CCOC(=O)c1nc(-c2nccs2)[nH]c1C1CCCC1
output: moderate

input: Please classify: CCCCc1[nH]c(-c2cccs2)nc1C(=O)OCC
output: moderate

input: Please classify: CCOC(=O)c1nc(-c2nccs2)[nH]c1C1CCC1
output: moderate

input: Please classify: CCOC(=O)c1nc(-c2nccs2)oc1C1CCCCC1
output: low
